Parameter pIC50: see the listing below.
# MEASURED_TARGET: K-Ras G13C (Homo sapiens (Human), UniProt P01116+P62937, G13C)
# Sequence (P01116-2 other isoform, or with tags, fused parts or gaps G13C): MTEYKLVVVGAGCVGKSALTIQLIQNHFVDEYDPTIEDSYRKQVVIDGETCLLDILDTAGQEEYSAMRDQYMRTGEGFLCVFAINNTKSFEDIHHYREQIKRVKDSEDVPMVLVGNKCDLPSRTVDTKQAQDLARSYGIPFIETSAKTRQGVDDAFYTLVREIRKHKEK
# Sequence (P62937 whole entry): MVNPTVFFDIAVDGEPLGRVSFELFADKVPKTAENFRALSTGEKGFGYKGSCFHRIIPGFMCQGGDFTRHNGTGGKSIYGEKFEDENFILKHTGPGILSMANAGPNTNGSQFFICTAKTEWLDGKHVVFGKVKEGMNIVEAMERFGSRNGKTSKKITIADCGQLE
# ASSAY_METHOD_TEXT: Ras-Raf (BRAF RBD) disruption / FRET / MOA assay, KRAS G13C
# Assay type: biochemical
# EXPERIMENTAL_CONDITIONS: KRAS G13C; Ras-Raf disruption/FRET/MOA assay; read-out: IC50* KRAS G13C FRET data
pIC50: −log10 of the molar value.

Take a look at these entries with their results.
CCn1c(-c2cccnc2[C@H](C)OC)c2c3cc(ccc31)-c1cc(cc(C(F)F)c1)C[C@H](NC(=O)C(COC1CN(C(=O)C#CC(C)(C)N(C)C)C1)C(C)C)C(=O)N1CCC[C@H](N1)C(=O)OCC(C)(C)C2 (mixture of isomers) [Example A404] = < 5.00
C=CC(=O)N1CC2(C1)CN(C(=O)N(C)[C@H](C(=O)N[C@H]1Cc3nc(cs3)-c3ccc4c(c3)c(c(-c3cccnc3[C@H](C)OC)n4CC)CC(C)(C)COC(=O)[C@@H]3CCCN(N3)C1=O)C(C)C)C2 (atropisomer, axis not shown) [Example A419] = 6.00 to 7.00
C=CC(=O)N1CC[C@@](C#N)(C(=O)N(C)[C@H](C(=O)N[C@H]2Cc3cccc(c3)-c3ccc4c(c3)c(c(-c3cccnc3[C@H](C)OC)n4CC)CC(C)(C)COC(=O)[C@@H]3CCCN(N3)C2=O)C(C)C)C1 (atropisomer, axis not shown) [Example A444] = 6.00 to 7.00

In: Quick one: pIC50 of C=CC(=O)N1CC[C@@H]2[C@H](C1)CN2C(=O)N(C)[C@H](C(=O)N[C@H]1Cc2nc(cs2)-c2ccc3c(c2)c(c(-c2cccnc2[C@H](C)OC)n3CC)CC(C)(C)COC(=O)[C@@H]2CCCN(N2)C1=O)C(C)C (atropisomer, axis not shown) [Example A688] ?
Out: 6.00 to 7.00

In: pIC50 lookup needed for C=CC(=O)N1CCO[C@H]2CN(C(=O)N(C)[C@H](C(=O)N[C@H]3C[C@H]4CN(CCO4)c4ccc5c(c4)c(c(-c4cccnc4[C@H](C)OC)n5CC)CC(C)(C)COC(=O)[C@@H]4CCCN(N4)C3=O)C(C)C)C[C@H]21 [Example A562] , thanks.
Out: 6.00 to 7.00

In: Record request: pIC50 value, item C=CC(=O)N1CC[C@H](C(=O)N(CC)[C@H](C(=O)N[C@H]2Cc3cccc(c3)-c3ccc4c(c3)c(c(-c3cccnc3[C@H](C)OC)n4CC)CC(C)(C)COC(=O)[C@@H]3CCCN(N3)C2=O)C(C)C)C1 (atropisomer, axis not shown) [Example A399]
Out: 5.00 to 6.00

In: Entry C=CC(=O)N1CC[C@H](C(=O)N(C)[C@H](C(=O)N[C@H]2CC3=NN=C(O3)c3ccc4c(c3)c(c(-c3cccnc3[C@H](C)OC)n4CC)CC(C)(C)COC(=O)[C@@H]3CCCN(N3)C2=O)C(C)C)C1 (atropisomer, axis not shown) [Example A447] has what pIC50?
Out: 5.00 to 6.00

In: Suppose we examine the compound C=CC(=O)Nc1ccc(C(=O)N(C)[C@H](C(=O)N[C@H]2Cc3cc(O)cc(c3)-c3ccc4c(c3)c(c(-c3cccnc3[C@H](C)OC)n4CC)CC(C)(C)COC(=O)[C@@H]3CCCN(N3)C2=O)C(C)C)cn1 (atropisomer, axis not shown) [Example A336] ; what pIC50 value has been reported?
Out: > 8.00

In: Need pIC50, item CCn1c(-c2cccnc2[C@H](C)OC)c2c3cc(ccc31)-c1cc(CF)cc(c1)C[C@H](NC(=O)[C@H](C(C)C)N(C)C(=O)[C@H]1CCN(C(=O)C#CC(C)(C)N(C)C)C1)C(=O)N1CCC[C@H](N1)C(=O)OCC(C)(C)C2 (atropisomer, axis not shown) [Example A658]
Out: 6.00 to 7.00

In: Which pIC50 is listed for CO[C@@H](C)c1ncccc1-c1c2c3cc(ccc3n1CC(F)(F)F)-c1cccc(c1)C[C@H](NC(=O)[C@H](C(C)C)N(C)C(=O)N1CCC3(CC1)CN(C(=O)/C=C/CN(C)C)C3)C(=O)N1CCC[C@H](N1)C(=O)OCC(C)(C)C2 (atropisomer, axis not shown) [Example A555] ?
Out: 7.00 to 8.00

In: # lookup: pIC50 of C=CC(=O)N1CC(N(C)C(=O)N(C)[C@H](C(=O)N[C@H]2Cc3nc(cs3)-c3ccc4c(c3)c(c(-c3cccnc3[C@H](C)OC)n4CC)CC(C)(C)COC(=O)[C@@H]3CCCN(N3)C2=O)C(C)C)C1 (atropisomer, axis not shown) [Example A435]
Out: 6.00 to 7.00

In: Form field: reported pIC50 of C=CC(=O)N1CC[C@H](C(=O)N(C)[C@H](C(=O)N[C@H]2Cc3cc(O)cc(c3)-c3cc4c(c(-c5ccccc5CCOC)n(CC)c4cn3)CC(C)(C)COC(=O)[C@@H]3CCCN(N3)C2=O)C(C)C)C1 [Example A102]
Out: < 5.00

In: Requested field: pIC50. Item: CCn1c(-c2cccnc2[C@H](C)OC)c2c3cc(ccc31)N1CCC[C@@H](C[C@H](NC(=O)[C@H](C(C)C)N(C)C(=O)C3(F)CCN(C(=O)C#CC(C)(C)N(C)C)CC3)C(=O)N3CCC[C@H](N3)C(=O)OCC(C)(C)C2)C1 (atropisomer, axis not shown) [Example A616]
Out: 5.00 to 6.00

In: Dear colleague, I am looking for the recorded pIC50 of the following compound: C=CC(=O)N1CC[C@H](C(=O)N(C)[C@H](C(=O)N[C@H]2Cc3cc(O)cc(c3)-c3ccc4c(c3)c(c(-c3cnc(N(C)C)s3)n4CC)CC(C)(C)COC(=O)[C@@H]3CCCN(N3)C2=O)C(C)C)C1 [Example A302]
Out: 6.00 to 7.00

In: Would you mind telling me what pIC50 value was observed for CCn1c(-c2cccnc2COC)c2c3cc(ccc31)-c1cc(O)cc(c1)C[C@H](NC(=O)[C@H](C(C)C)N(C)C(=O)[C@H]1CCN(C(=O)C#CCN3[C@H](C)COC[C@@H]3C)C1)C(=O)N1CCC[C@H](N1)C(=O)OCC(C)(C)C2 [Example A237] ?
Out: 6.00 to 7.00
